Reported IC50 values for a set of compounds
Target: HCV NS3 protease (full length NS34a) (Hepatitis C virus genotype 1b)
Construct: The protease activity of the full length NS34a was measured using a FRET-based assay; made in house
Sequence (P26663 1658-1711): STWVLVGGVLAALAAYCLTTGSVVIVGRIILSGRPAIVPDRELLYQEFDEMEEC
Sequence (P26663 1027-1657): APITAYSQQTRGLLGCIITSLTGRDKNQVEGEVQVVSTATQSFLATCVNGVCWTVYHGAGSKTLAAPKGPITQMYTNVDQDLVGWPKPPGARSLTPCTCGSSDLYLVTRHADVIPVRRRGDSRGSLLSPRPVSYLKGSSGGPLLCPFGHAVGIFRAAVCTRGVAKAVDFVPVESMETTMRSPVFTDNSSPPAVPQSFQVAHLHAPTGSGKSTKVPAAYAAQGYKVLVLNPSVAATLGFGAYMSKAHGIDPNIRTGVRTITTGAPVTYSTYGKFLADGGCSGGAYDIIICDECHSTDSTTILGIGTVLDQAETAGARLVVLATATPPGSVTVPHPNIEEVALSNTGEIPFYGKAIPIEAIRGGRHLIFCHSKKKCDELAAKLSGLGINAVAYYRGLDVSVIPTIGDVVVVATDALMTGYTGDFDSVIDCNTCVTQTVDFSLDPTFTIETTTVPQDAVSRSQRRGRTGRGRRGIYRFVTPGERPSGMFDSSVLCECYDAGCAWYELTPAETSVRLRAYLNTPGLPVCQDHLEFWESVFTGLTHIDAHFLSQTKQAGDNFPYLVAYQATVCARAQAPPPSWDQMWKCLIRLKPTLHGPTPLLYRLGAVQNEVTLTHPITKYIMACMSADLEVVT
Assay: HCV NS3 protease assay (FRET, full length NS34a)
Format: biochemical
Settings: protease activity of full length NS34a, FRET peptide substrate; read-out: Activity IC50
Procedure: The HCV NS3 protease functions have been extensively studied and are considered as potential targets for antiviral therapy: see for example the many references listed in the introductory section of this application. Therefore, the activity of the compounds of the invention as anti-HCV agents was assessed using a full length HCV NS3 protease. […]
Please give a number only; it is taken to be in nM.

Examples with answers:
[
  {
    "Compound": "CC[C@H](NCCC(=O)NCC#N)c1ccc(F)c(Oc2ccccc2)c1F",
    "Numeric Result": 2400
  },
  {
    "Compound": "CC[C@H](N)c1ccc(Cl)c(Oc2cccc(C(=O)N(C)Cc3cn[nH]c3)c2)c1F",
    "Numeric Result": 2800
  }
]

**Query** What IC50 value was documented for this compound, `CS(=O)(=O)Nc1cccc(Oc2c(F)ccc(CN[C@H]3CC[C@H](N)CC3)c2F)c1` ?
**Result** 1400

**Query** One more compound: CCC(NCCC1CCCNC1)c1ccc(F)c(Oc2ccccc2)c1F (stereo not shown)
**Result** 1000

Values were extracted from patent US20140288040A1.
